Listed here are compounds together with their documented log10(IC50).
target: SNAP-hSPR (sepiapterin reductase, SPR) (Homo sapiens, UniProt P35270)
Sequence (P35270 whole entry): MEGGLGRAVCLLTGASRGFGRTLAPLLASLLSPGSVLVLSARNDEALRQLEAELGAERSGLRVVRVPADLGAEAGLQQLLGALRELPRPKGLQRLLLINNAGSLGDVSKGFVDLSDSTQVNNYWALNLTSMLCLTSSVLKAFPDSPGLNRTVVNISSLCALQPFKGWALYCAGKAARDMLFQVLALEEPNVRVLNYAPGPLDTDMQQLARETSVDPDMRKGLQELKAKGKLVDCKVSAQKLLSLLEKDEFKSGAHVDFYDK
Plainly stated, the numbers are log10 of IC50 given in nM.

Study these solved cases before continuing.
Cc1c(C(=O)N2CC(N3CCC(F)(F)C3)C2)cnn1-c1nc2[nH]ccc2c(=O)[nH]1 [Q-1254] | 2.00
O=C(c1cnn(-c2nc3c(c(=O)[nH]2)CCC3)c1)N1CCN2CCC[C@@H]2C1 [Q-0743] | 0.60
Cc1cc(=O)[nH]c(-n2ncc(C(=O)NC3CCCC3)c2Cc2ccccc2)n1 [Q-0370] | 2.00
Cc1cc(=O)[nH]c(-n2nc(C)c(C(=O)N3CCc4ccccc4C3)c2C)n1 [Q-0375] | 1.30

Reported log10(IC50) for SNAP-hSPR (sepiapterin reductase, SPR) (Homo sapiens, UniProt P35270), given Cc1c(C(=O)N2C[C@@H]3CCC(F)(F)[C@@H]3C2)cnn1-c1nn2cccc2c(=O)[nH]1 [Q-0896] ?
0.00
